# experimental system: Catechol O-methyltransferase (Homo sapiens, UniProt P21964)
# Sequence (P21964 whole entry): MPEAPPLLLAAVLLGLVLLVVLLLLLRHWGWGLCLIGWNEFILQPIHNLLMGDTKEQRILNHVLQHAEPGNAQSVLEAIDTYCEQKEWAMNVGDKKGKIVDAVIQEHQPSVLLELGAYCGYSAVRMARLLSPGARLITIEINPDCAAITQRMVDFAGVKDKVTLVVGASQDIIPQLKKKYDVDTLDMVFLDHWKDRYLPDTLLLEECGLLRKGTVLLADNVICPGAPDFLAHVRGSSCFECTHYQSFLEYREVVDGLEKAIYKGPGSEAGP
# assay: Inhibition of human recombinant His-tagged soluble COMT expressed in Escherichia coli BL21 using aesculetin as substrate after 60 mins by microplate assay in presence of SAM
property label: IC50 (µM)

a = CCN1C(=O)S/C(=C/c2cc(O)c(O)c([N+](=O)[O-])c2)C1=O
b = CN(Cc1ccc(C(=O)c2cc(O)c(O)c([N+](=O)[O-])c2)cc1)C(=O)CCCCCNC(=O)C[C@H](NC(=O)c1ccc(N=[N+]=[N-])cc1)C(=O)NCCCOCCOCCOCCCNC(=O)CCCC[C@@H]1SC[C@@H]2NC(=O)N[C@@H]21
Query string: Input pair: a , b . Output: entry with lower IC50. Write the label of whichever entry you select.
Result string: a

---

# System: HepG2
# assay: Mitochondrial toxicity in human HepG2 cells assessed as mitochondrial membrane potential levels at 100 uM by TMRE-based mitochondria membrane potential assay relative to control
# Assay type: cell-based
# protocol conditions: hepg2, 100 µM
property label: Activity (%)
Form entry: value (%) — number only.

>>> print(df.to_string())
                                   compound  experimental_system  property_label  result_number
0  CCN(CC)C(=O)c1cc2cc(O)c(O)c([N+](=O)[O-])c2cc1C(=O)N(CC)CC                HepG2        Activity              0
1  Cc1ccc(C(=O)c2cc(O)c(O)c([N+](=O)[O-])c2)cc1 [TOLCAPONE]                HepG2        Activity              0

The record that follows has no Activity shown yet.
Query string: Test system HepG2; read-out Activity; what value for CCN(CC)C(=O)/C(C#N)=C/c1cc(O)c(O)c([N+](=O)[O-])c1 [ENTACAPONE] ?
Result string: 40

---

# experimental system: Aldo-keto reductase family 1 member B10 (Homo sapiens, UniProt O60218)
# Sequence (O60218 whole entry): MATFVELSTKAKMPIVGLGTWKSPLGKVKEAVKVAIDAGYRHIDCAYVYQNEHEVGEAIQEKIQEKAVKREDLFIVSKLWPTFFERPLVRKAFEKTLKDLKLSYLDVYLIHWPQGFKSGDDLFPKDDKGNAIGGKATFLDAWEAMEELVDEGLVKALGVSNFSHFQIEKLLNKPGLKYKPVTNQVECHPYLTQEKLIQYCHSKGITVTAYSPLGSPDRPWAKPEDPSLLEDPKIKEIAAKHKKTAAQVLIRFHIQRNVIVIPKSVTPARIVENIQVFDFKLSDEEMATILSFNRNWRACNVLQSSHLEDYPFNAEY
# assay: Binding affinity to AKR1B10 in human HepG2 assessed as intensity fold change of cumulated normalized intensity of protein between capture and competition assay at 100 uM after 1 hr in presence of inactive Tcp-CC 14 by differential competition capture compound mass spectrometry
# Format: ADME
property label: fold change (FC)

Recorded results for 2 compounds are shown here.
In [3]: df
Out[3]:
                                   compound                       experimental_system    property_label  result_number
0  Cc1ccc(C(=O)c2cc(O)c(O)c([N+](=O)[O-])c2)cc1 [TOLCAPONE]  Aldo-keto reductase family 1 member B10 (Homo sapiens, UniProt O60218)  fold change (FC)            2.3
1  CCN(CC)C(=O)/C(C#N)=C/c1cc(O)c(O)c([N+](=O)[O-])c1 [ENTACAPONE]  Aldo-keto reductase family 1 member B10 (Homo sapiens, UniProt O60218)  fold change (FC)           2.98

1 = CCN(CC)C(=O)c1cc2cc(O)c(O)c([N+](=O)[O-])c2cc1C(=O)N(CC)CC
2 = CCN1C(=O)S/C(=C/c2cc(O)c(O)c([N+](=O)[O-])c2)C1=O
Query string: Thinking about recorded fold change (FC) values, which is higher, 1 or 2 ? Write the label of whichever entry you select.
Result string: 1

Reference source: ChEMBL document CHEMBL3817783
